# credit: patent US20150352108A1

STUDY_TARGET: TBK1 (Homo sapiens, UniProt Q9UHD2)
Construct: His-tag; made in house; host or cells: Sf9 insect cells
Sequence (Q9UHD2 1-729): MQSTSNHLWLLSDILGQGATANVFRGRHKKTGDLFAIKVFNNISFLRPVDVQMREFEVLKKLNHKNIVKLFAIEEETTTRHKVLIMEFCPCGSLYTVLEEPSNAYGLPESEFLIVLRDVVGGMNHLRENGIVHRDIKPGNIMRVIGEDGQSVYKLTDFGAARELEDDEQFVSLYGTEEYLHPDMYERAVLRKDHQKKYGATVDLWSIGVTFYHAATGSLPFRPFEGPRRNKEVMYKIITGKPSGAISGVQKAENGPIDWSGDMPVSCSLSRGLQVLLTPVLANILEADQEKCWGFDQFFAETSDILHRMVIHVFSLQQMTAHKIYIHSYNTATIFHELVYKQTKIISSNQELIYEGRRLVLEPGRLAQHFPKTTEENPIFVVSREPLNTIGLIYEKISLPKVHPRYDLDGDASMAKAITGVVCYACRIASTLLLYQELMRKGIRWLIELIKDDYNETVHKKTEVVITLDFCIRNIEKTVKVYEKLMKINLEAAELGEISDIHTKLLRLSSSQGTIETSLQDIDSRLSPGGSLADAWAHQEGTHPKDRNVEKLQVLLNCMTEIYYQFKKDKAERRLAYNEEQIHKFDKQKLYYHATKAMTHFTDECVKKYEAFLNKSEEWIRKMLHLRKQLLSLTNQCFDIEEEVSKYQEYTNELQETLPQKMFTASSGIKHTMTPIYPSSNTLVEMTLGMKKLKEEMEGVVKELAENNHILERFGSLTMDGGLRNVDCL
ASSAY_SUMMARY: In-vitro TBK1 kinase assay ([γ33]ATP filter-plate)
Type: biochemical
SETTINGS: text bins; read-out: IC50 for inhibition of the kinase activity of TBK1
Description: IKKε enzyme was produced as a His-tag fusion in Sf9 cells and used at a final concentration of […]. TBK1 enzyme was produced as a His-tag fusion in Sf9 cells and used at a final concentration of 0.1 μg/ml. […] After air drying, scintillant (PerkinElmer, Waltham, Mass.) was added and the plates were read on a PerkinElmer TopCount NXT instrument. […]
pIC50: −log10 of the molar value.
MEASURED_PARAMETER: pIC50

> print(dat)
                                   compound  recorded.value
1  N#Cc1cc(-c2ccnc(Nc3ccc(N4CCOCC4)cc3)n2)ccc1OCC1CCNCC1    7.00 to 8.00
2  COc1cc(Nc2nccc(-c3ccc(OC4CCOCC4)c(C#N)c3)n2)ccc1C(=O)N(C)CCN(C)C          > 8.00
3  COc1cc(Nc2nccc(-c3ccc(NC(=O)C4CC4)c(C#N)c3)n2)ccc1CN1CC(OC)C1    7.00 to 8.00
4  CN(C)C(=O)Nc1cccc(Nc2nccc(-c3ccc(OC4CCOCC4)c(C#N)c3)n2)c1          > 8.00
5  COc1cc(Nc2nccc(-c3ccc(OC4CCOCC4)c(C#N)c3)n2)ccc1OCCCS(=O)(=O)N1CCN(C)CC1          > 8.00
6  N#Cc1cc(-c2ccnc(Nc3ccc(N4CCOCC4)cc3)n2)ccc1NC(=O)C1CCCCC1    7.00 to 8.00
7  N#Cc1cc(-c2ccnc(Nc3ccc(NC(=O)Nc4cccnc4)cc3)n2)ccc1OC1CCOCC1          > 8.00
8  N#Cc1cc(-c2ccnc(Nc3ccc(NC(=O)NCCO)cc3)n2)ccc1OC1CCOCC1          > 8.00
